- Test system: HOP-92
- procedure-summary: NCI tumour cell line growth inhibition, 48 h
Calls of active or inactive are those of the source. No stated cut-off is given here; in the data, active = GI50 up to about 1.1 µM and inactive = higher.

molecule: COc1cc(CNC(=O)[C@H](Cc2ccc(O)cn2)NC(C)=O)cc(OC)c1
GI50: 13.2 µM (inactive)

molecule: CN(C)CCCNC(=O)c1cc(NC(=O)CCCn2c3ccccc3c3ccccc32)cn1C
GI50: 2.13 µM (inactive)

molecule: Cc1cc(S(=O)(=O)Nc2nc(N)n(-c3cnc4ccccc4n3)n2)c(S)cc1Cl
GI50: 16.6 µM (inactive)

molecule: CC(C)(C)[Si](OC1CC(n2cnc3c(N)ncnc32)OC1CO)(c1ccccc1)c1ccccc1 (configuration not stated)
GI50: 20.2 µM (inactive)

molecule: CN(C)c1ccc(/C=c2/c3ccccc3n3nc4ccccc4c23)cc1
GI50: 12.8 µM (inactive)

molecule: COC(=O)c1c2c(cc3c1CC1(Cc4cc5c(cc4C1)CCC5)C3)CCC2
GI50: > 100 µM (inactive)

molecule: C[C@@H]1CC[C@@]2(C)OC(c3ccccc3)[C@H](CO)N2C1=O (some centres not stated)
GI50: > 100 µM (inactive)

molecule: CC(=O)/C(=C/n1c(=S)[nH]c2ccccc21)C(=O)Nc1ccccc1C
GI50: > 100 µM (inactive)

molecule: COc1ccc2c(c1)C(=O)c1ccc(OC)cc1C2=S
GI50: > 100 µM (inactive)

molecule: N#C/C(=C\c1ccc(F)cc1)c1nc2ccccc2c(=O)[nH]1
GI50: 82.2 µM (inactive)

molecule: CCC(C)[C@H](NC(=O)[C@H](Cc1ccccc1)NC(=O)N(CC)c1ccccc1)C(=O)N[C@@H](CC(C)C)C(=O)OC (some centres not stated)
GI50: 40.7 µM (inactive)

molecule: CO[C@]12CCC(=O)N1C=Cc1c2[nH]c2ccccc12
GI50: > 100 µM (inactive)

molecule: COC(=O)C1CN=CN1CCc1ccccc1 (configuration not stated)
GI50: > 100 µM (inactive)

molecule: O=[PH](O)c1ccsc1
GI50: 86.5 µM (inactive)

molecule: Cc1ccc(S(N)(=O)=O)cc1 [P-TOLUENESULFONAMIDE]
GI50: 558 µM (inactive)

molecule: O=c1[nH]nc(Cc2ccccc2)n1/N=C/c1cccnc1
GI50: > 100 µM (inactive)

molecule: CC(NC(=O)C(C)C(=O)Nc1ccc(C(F)(F)F)cc1)C(N)=O (configuration not stated)
GI50: > 100 µM (inactive)
